Biological target: T1, Human VSIG4-L-Fc (human)
T1 construct: also called hVSIG4-L-Fc; hVSIG4-L
T1 sequence (chain, as listed by the source limits assumed): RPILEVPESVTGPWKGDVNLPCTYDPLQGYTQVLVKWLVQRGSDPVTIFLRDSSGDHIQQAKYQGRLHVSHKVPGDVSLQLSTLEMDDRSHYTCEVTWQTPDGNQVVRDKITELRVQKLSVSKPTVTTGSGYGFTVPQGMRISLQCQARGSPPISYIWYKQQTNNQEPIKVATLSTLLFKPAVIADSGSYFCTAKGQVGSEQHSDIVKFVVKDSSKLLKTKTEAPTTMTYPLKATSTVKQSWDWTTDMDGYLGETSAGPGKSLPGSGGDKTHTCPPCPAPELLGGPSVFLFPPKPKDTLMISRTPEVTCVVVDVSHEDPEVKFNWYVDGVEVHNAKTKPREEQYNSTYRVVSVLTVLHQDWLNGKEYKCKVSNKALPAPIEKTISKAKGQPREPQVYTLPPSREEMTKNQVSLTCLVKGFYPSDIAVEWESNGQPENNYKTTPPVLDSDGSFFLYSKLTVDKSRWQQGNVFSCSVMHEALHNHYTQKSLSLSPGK
Experiment: BLI binning on hVSIG4-L-Fc, competitor 16E03 first;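 also: normalized to binding of second antibody without first competitor antibody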
Measured normalized maximum binding nm shift of individual entries
I'd appreciate it if you wrote the number followed by its unit.

Below, each entry is followed by its recorded normalized maximum binding nm shift result.
13H11 mouse/human chimeric IgG4 (S228P) kappa (antibody, V domains shown) VH: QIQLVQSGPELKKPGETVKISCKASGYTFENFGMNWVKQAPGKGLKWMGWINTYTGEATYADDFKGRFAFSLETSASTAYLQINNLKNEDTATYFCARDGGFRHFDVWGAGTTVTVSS VL: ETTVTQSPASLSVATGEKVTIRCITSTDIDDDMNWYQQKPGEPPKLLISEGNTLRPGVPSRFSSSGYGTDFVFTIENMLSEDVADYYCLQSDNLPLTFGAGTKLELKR
0.72 normalized
15C03 mouse/human chimeric IgG4 (S228P) kappa (antibody, V domains shown) VH: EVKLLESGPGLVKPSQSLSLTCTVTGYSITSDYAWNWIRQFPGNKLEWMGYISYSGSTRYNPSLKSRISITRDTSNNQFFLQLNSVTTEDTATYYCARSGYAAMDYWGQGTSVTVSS VL: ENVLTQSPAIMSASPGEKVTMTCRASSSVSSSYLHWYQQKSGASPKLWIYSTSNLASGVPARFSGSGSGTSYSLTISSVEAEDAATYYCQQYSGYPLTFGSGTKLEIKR
0.13 normalized

Name the recorded normalized maximum binding nm shift for 14C05 mouse/human chimeric IgG4 (S228P) kappa (antibody, V domains shown) VH: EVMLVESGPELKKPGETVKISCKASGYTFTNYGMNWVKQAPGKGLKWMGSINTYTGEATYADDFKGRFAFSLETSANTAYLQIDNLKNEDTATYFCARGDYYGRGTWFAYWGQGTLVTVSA VL: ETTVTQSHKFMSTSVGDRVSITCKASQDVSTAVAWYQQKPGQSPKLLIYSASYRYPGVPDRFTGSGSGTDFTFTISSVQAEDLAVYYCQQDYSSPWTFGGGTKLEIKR .
0.62 normalized

Name the recorded normalized maximum binding nm shift for 15C04 mouse/human chimeric IgG4 (S228P) kappa (antibody, V domains shown) VH: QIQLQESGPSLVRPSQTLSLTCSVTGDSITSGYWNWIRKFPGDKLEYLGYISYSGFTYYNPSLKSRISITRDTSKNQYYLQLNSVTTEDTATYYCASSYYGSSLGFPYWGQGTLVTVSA VL: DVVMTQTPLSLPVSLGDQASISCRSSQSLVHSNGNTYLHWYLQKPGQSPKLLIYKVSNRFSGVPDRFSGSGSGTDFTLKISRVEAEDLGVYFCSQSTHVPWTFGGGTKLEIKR .
0.74 normalized
